So I've got a bunch of compounds here, and I need their logP values.
Enter a number only.

Fill in the blank: the reported logP of CC(=O)Nc1ccccc1N is ____.
0.13

Queued: O=C(Nc1ccccc1)Nc1ccccn1
3.1

Queued: O=C(CCl)Nc1sc2c(c1C(=O)c1ccccc1)CCCC2
4.58

Queued: NC(=O)C(c1ccccc1)c1ccccc1
2.11

Queued: CC(C)NC(=O)Nc1ccccc1
1.84

Queued: c1ccc(CNc2nc3ccccc3[nH]2)cc1
2.92

Queued: COc1ccc(C(=O)Nc2nc3ccccc3[nH]2)cc1
2.89

Queued: OCCNc1nc2ccccc2[nH]1
1.1

Queued: CCC(=O)NC(=O)Nc1ccccc1
2.19

Queued: CC(C)NC(=O)c1cc2ccccc2oc1=O
2.13

Queued: CC(C)Nc1ccccc1N
1.65

Queued: CC(C)NC(=O)c1ccc2ccccc2c1
2.68

Queued: CNC(=O)Nc1ccccn1
0.8

Queued: CNc1ccccc1C(=O)OC
2.97

Queued: CCc1ccccc1NC
2.58

Queued: NC(=O)C(C(N)=O)c1ccccc1
-0.07
